# test-description: qHTS RealTime-Glo MT Cell Viability Assay in HepG2 cells - 24 hour (AID 1224867); also: nearly all actives have a fitted effect of over 50% in size
# condition-parameters: RealTime-Glo luminescence; series mostly up to 76.8 µM
Results filed as inconclusive are left out. The source made the active and inactive calls. Calls follow the shape of the dose curve; as a rule, active = well fitted cell-killing curve with a large enough effect in the repeat runs; inconclusive = weak or mixed curves; inactive = flat fitted curve, though single readings scatter.
Form entry, call: pick from 1 = active, 0 = inactive

Nc1ncn[nH]1: 0
Clc1ccc(C(Cl)(Cl)Cl)cc1: 0
O=S(=O)(O)C(F)(F)C(F)(F)C(F)(F)C(F)(F)C(F)(F)C(F)(F)C(F)(F)C(F)(F)F: 0
CCCCCCCCCC(CC)c1ccc(S(=O)(=O)O)cc1 (stereo not given): 0
CCOC(=O)c1ccccc1N: 0
CC(C)(c1ccccc1)c1ccc(O)cc1: 0
ClCC(Cl)CCl: 0
O=C(O)CF: 0

Incoming: Fill in: this test's call for `Cc1ccc(N=CN(C)C=Nc2ccc(C)cc2C)c(C)c1` is ___
Outgoing: 0

Incoming: Fill in: this test's call for `ClC(Cl)(Cl)c1ccccc1` is ___
Outgoing: 0

Incoming: Fill in: this test's call for `CCC/C=N/O` is ___
Outgoing: 0

Incoming: Fill in: this test's call for `CCCCOC(=O)COC(=O)c1ccccc1C(=O)OCCCC` is ___
Outgoing: 0

Incoming: Fill in: this test's call for `CCOP(=S)(OCC)SCn1c(=O)oc2cc(Cl)ccc21` is ___
Outgoing: 0

Incoming: Fill in: this test's call for `CCOS(=O)(=O)OCC` is ___
Outgoing: 0

Numbers sourced from PubChem BioAssay (Tox21).
